Kindly supply the reported TIC value of compound, 0 min, R3 values for the records listed here.
METHOD: Metabolic stability in rat liver microsomes (RLMs)
COND: rat liver microsomes, 0 min, replicate R3
No unit in the answer, only the number.

Notebook: O=C1C[C@H]2CCCN2C(=O)[C@H](Cc2ccccc2)NC(=O)[C@@H](NC(=O)c2ccc(Cl)s2)CCCSCc2cccc(n2)CSCCN1 [compound 35] , TIC value of compound, 0 min, R3 read as 25801224

Notebook: O=C1C[C@H]2CCCN2C(=O)[C@H](Cc2ccccc2)NC(=O)[C@@H](NC(=O)c2ccc(Cl)s2)CSC/C=C/CSCCN1 [peptide 32] , TIC value of compound, 0 min, R3 read as 4260631

Notebook: O=C1C[C@H]2CCCN2C(=O)[C@H](Cc2ccccc2)NC(=O)[C@@H](NC(=O)c2ccc(Cl)s2)CCCSC/C=C/CSCCN1 [compound 36] , TIC value of compound, 0 min, R3 read as 9584351

Notebook: O=C1C[C@H]2CCCN2C(=O)[C@H](Cc2ccccc2)NC(=O)[C@@H](NC(=O)c2ccc(Cl)s2)CSCc2cccc(n2)CSCCN1 [compound 31] , TIC value of compound, 0 min, R3 read as 21375886

Notebook: O=C1C[C@H]2CCCN2C(=O)[C@H](Cc2ccccc2)NC(=O)[C@@H](NC(=O)c2ccc(Cl)s2)CCSC/C=C/CSCCN1 [compound 34] , TIC value of compound, 0 min, R3 read as 11063826

Notebook: O=C1CSCCC[C@H](NC(=O)c2ccc(Cl)s2)C(=O)N[C@@H](Cc2ccccc2)C(=O)N2CCC[C@@H]2CC(=O)NCCSC1 [compound 37] , TIC value of compound, 0 min, R3 read as 9444065

Notebook: O=C1C[C@H]2CCCN2C(=O)[C@H](Cc2ccccc2)NC(=O)[C@@H](NC(=O)c2ccc(Cl)s2)CCSCc2cccc(n2)CSCCN1 [compound 33] , TIC value of compound, 0 min, R3 read as 18840495
